Data origin: patent US20190365788A1

Test system: HepG2 cells
Assay: In vitro inhibition of HepG2 cells (MTT proliferation assay)
Type: cell-based
Conditions: Homo sapiens, 72 h incubation, absorbance 570 nm, read-out: HepG2: Relative IC50
Procedure: The compounds of the invention were tested in cell based in vitro assays comprising HuH-1 cells and HepG2 cells, as in vitro models for potential hepatocellular carcinoma activity. HuH-1 cells were purchased from JCRB, HepG2 cells from ATCC, and both tested with the following method: Cells are suspended at a specific density in a specific culture medium. […] SDS is added to control wells (final concentration of 1%) and kept for 15 min at 37° C. […] Absorbance is measured at 570 nm.
metric name: IC50

compound="COc1nc(N)nc2c1ncn2[C@@H]1O[C@@H]2COP(=O)(OCC[C@@H](C)C(=O)OC(C)C)O[C@H]2[C@@H]1O (mixture of isomers) [Mixture 5A/5B]" target="HepG2 cells" metric_name=IC50 value="≥ 5 µM"
compound="CC(C)OC(=O)[C@H](C)CCOP1(=O)OC[C@H]2S[C@@H](n3ccc(N)nc3=O)[C@@H](F)[C@@H]2O1 (single isomer, unassigned) [Compound 2 Diastereoisomer 2]" target="HepG2 cells" metric_name=IC50 value="0.5 to 5 µM"
compound="CC(C)OC(=O)C(C)CCOP1(=O)OC[C@H]2O[C@@H](n3cc(C(F)(F)F)c(=O)[nH]c3=O)C[C@@H]2O1 (mixture of isomers) [Mixture 6A/6B]" target="HepG2 cells" metric_name=IC50 value="≥ 5 µM"
